Where do these numbers come from? They come from paper PMC9025941.

Test: In vitro skin permeation, Franz diffusion cells
Details: 24 h, saturated solution in PBS pH 7.4, mass of ibuprofen, n = 3
Marks after values point to notes of the source that are not given here.
For each record, write down the corresponding Cumulative Permeation Mass.

Specify Cumulative Permeation Mass for CC(C)Cc1ccc(C(C)C(=O)O)cc1.CC(C)OC(=O)C[C@H](N)C(=O)OC(C)C [[L-Asp(OiPr)2][IBU]] and stop.
395.800 ± 41.320 ^b µg IBU·cm^−2

Specify Cumulative Permeation Mass for CC(C)Cc1ccc(C(C)C(=O)O)cc1.CC(C)OC(=O)[C@@H](N)[C@@H](C)O [[L-ThrOiPr][IBU], L-threonine isopropyl ester ibuprofenate] and stop.
400.942 ± 17.921 ^b µg IBU·cm^−2

Specify Cumulative Permeation Mass for CC(C)Cc1ccc(C(C)C(=O)O)cc1 (racemic) [IBU, reference compound] and stop.
32.001 ± 2.801 ^a µg IBU·cm^−2

Specify Cumulative Permeation Mass for CC(C)Cc1ccc(C(C)C(=O)O)cc1.CC(C)OC(=O)[C@@H](N)CS [[L-CysOiPr][IBU], L-cysteine isopropyl ester ibuprofenate] and stop.
305.756 ± 28.028 ^b µg IBU·cm^−2

Specify Cumulative Permeation Mass for CC(C)C[C@H](N)C(=O)OC(C)C.CC(C)Cc1ccc(C(C)C(=O)O)cc1 [[L-LeuOiPr][IBU], L-leucine isopropyl ester ibuprofenate] and stop.
230.824 ± 4.924 ^b µg IBU·cm^−2

Specify Cumulative Permeation Mass for CC(C)Cc1ccc(C(C)C(=O)O)cc1.CC[C@H](C)[C@H](N)C(=O)OC(C)C [[L-IleOiPr][IBU]] and stop.
94.512 ± 4.791 ^b µg IBU·cm^−2

Specify Cumulative Permeation Mass for CC(C)Cc1ccc(C(C)C(=O)O)cc1.CC(C)OC(=O)[C@@H](N)Cc1ccccc1 [[L-PheOiPr][IBU]] and stop.
355.088 ± 5.482 ^b µg IBU·cm^−2

Specify Cumulative Permeation Mass for CC(C)Cc1ccc(C(C)C(=O)O)cc1.CC(C)Cc1ccc(C(C)C(=O)O)cc1.CC(C)OC(=O)[C@@H](N)CCCCN [[L-LysOiPr][IBU]2] and stop.
220.016 ± 9.811 ^b µg IBU·cm^−2

Specify Cumulative Permeation Mass for CC(C)Cc1ccc(C(C)C(=O)O)cc1.CC(C)OC(=O)[C@H](C)N [[L-AlaOiPr][IBU], L-alanine isopropyl ester ibuprofenate] and stop.
350.100 ± 11.039 ^b µg IBU·cm^−2

Specify Cumulative Permeation Mass for CC(C)Cc1ccc(C(C)C(=O)O)cc1.CC(C)OC(=O)[C@@H](N)C(C)C [[L-ValOiPr][IBU], L-valine isopropyl ester ibuprofenate] and stop.
386.391 ± 31.666 ^b µg IBU·cm^−2

###

Experiment: In vitro skin permeation, Franz diffusion cells
Settings: 24 h, saturated solution in PBS pH 7.4, mass of compound, n = 3
Marks after values point to notes of the source that are not given here.
For each record, write down the corresponding Cumulative Permeation Mass.

Specify Cumulative Permeation Mass for CC(C)Cc1ccc(C(C)C(=O)O)cc1.CC(C)Cc1ccc(C(C)C(=O)O)cc1.CC(C)OC(=O)[C@@H](N)CCCCN [[L-LysOiPr][IBU]2] and stop.
640.825 ± 28.577 ^b µg·cm^−2

Specify Cumulative Permeation Mass for CC(C)Cc1ccc(C(C)C(=O)O)cc1.CC(C)OC(=O)C[C@H](N)C(=O)OC(C)C [[L-Asp(OiPr)2][IBU]] and stop.
812.658 ± 12.545 ^b µg·cm^−2

Specify Cumulative Permeation Mass for CC(C)Cc1ccc(C(C)C(=O)O)cc1.CC(C)OC(=O)[C@@H](N)CCCCN [[L-LysOiPr][IBU], L-lysine isopropyl ester ibuprofenate] and stop.
1011.106 ± 43.448 ^b µg·cm^−2

Specify Cumulative Permeation Mass for CC(C)Cc1ccc(C(C)C(=O)O)cc1.CC(C)OC(=O)[C@@H](N)Cc1ccccc1 [[L-PheOiPr][IBU]] and stop.
711.866 ± 5.956 ^b µg·cm^−2

Specify Cumulative Permeation Mass for CC(C)Cc1ccc(C(C)C(=O)O)cc1 (racemic) [IBU, reference compound] and stop.
32.001 ± 3.167 ^a µg·cm^−2

###

Test: Thermal stability (TG/DTG): decomposition onset and maximum mass-loss rate temperature
quantity_measured: Tonset, the onset temperature of the thermal degradation (°C)
Form entry: value (°C) — number only.

Specify Tonset, the onset temperature of the thermal degradation for CC(C)Cc1ccc(C(C)C(=O)O)cc1.CC(C)OC(=O)[C@H](C)N [[L-AlaOiPr][IBU], L-alanine isopropyl ester ibuprofenate] and stop.
78.3

Specify Tonset, the onset temperature of the thermal degradation for CC(C)Cc1ccc(C(C)C(=O)O)cc1.CC(C)OC(=O)[C@@H](N)[C@@H](C)O [[L-ThrOiPr][IBU], L-threonine isopropyl ester ibuprofenate] and stop.
129.6

Specify Tonset, the onset temperature of the thermal degradation for CC(C)Cc1ccc(C(C)C(=O)O)cc1.CC(C)OC(=O)[C@@H](N)Cc1ccccc1 [[L-PheOiPr][IBU]] and stop.
175.8

Specify Tonset, the onset temperature of the thermal degradation for CC(C)Cc1ccc(C(C)C(=O)O)cc1.CSCC[C@H](N)C(=O)OC(C)C [[L-MetOiPr][IBU]] and stop.
146.2

###

Assay: In vitro skin permeation, Franz diffusion cells
Conditions: 24 h, n = 3
quantity_measured: Q%24 h, the percentage of the applied dose permeated after 24 h (%)
Form entry: value (%) — number only.

Specify Q%24 h, the percentage of the applied dose permeated after 24 h for CC(C)Cc1ccc(C(C)C(=O)O)cc1.CC[C@H](C)[C@H](N)C(=O)OC(C)C [[L-IleOiPr][IBU]] and stop.
2.318

Specify Q%24 h, the percentage of the applied dose permeated after 24 h for CC(C)Cc1ccc(C(C)C(=O)O)cc1.CC(C)OC(=O)[C@@H](N)CCCCN [[L-LysOiPr][IBU], L-lysine isopropyl ester ibuprofenate] and stop.
11.062

Specify Q%24 h, the percentage of the applied dose permeated after 24 h for CC(C)Cc1ccc(C(C)C(=O)O)cc1 (racemic) [IBU, reference compound] and stop.
7.408

Specify Q%24 h, the percentage of the applied dose permeated after 24 h for CC(C)Cc1ccc(C(C)C(=O)O)cc1.CC(C)Cc1ccc(C(C)C(=O)O)cc1.CC(C)OC(=O)[C@@H](N)CCCCN [[L-LysOiPr][IBU]2] and stop.
10.624

Specify Q%24 h, the percentage of the applied dose permeated after 24 h for CC(C)Cc1ccc(C(C)C(=O)O)cc1.CC(C)OC(=O)[C@@H](N)C(C)C [[L-ValOiPr][IBU], L-valine isopropyl ester ibuprofenate] and stop.
13.698

Specify Q%24 h, the percentage of the applied dose permeated after 24 h for CC(C)Cc1ccc(C(C)C(=O)O)cc1.CC(C)OC(=O)[C@@H](N)[C@@H](C)O [[L-ThrOiPr][IBU], L-threonine isopropyl ester ibuprofenate] and stop.
11.294

Specify Q%24 h, the percentage of the applied dose permeated after 24 h for CC(C)Cc1ccc(C(C)C(=O)O)cc1.CC(C)OC(=O)[C@@H](N)CS [[L-CysOiPr][IBU], L-cysteine isopropyl ester ibuprofenate] and stop.
12.210

Specify Q%24 h, the percentage of the applied dose permeated after 24 h for CC(C)Cc1ccc(C(C)C(=O)O)cc1.CC(C)OC(=O)[C@@H](N)Cc1ccccc1 [[L-PheOiPr][IBU]] and stop.
35.912

Specify Q%24 h, the percentage of the applied dose permeated after 24 h for CC(C)Cc1ccc(C(C)C(=O)O)cc1.CC(C)OC(=O)C[C@H](N)C(=O)OC(C)C [[L-Asp(OiPr)2][IBU]] and stop.
27.307

Specify Q%24 h, the percentage of the applied dose permeated after 24 h for CC(C)Cc1ccc(C(C)C(=O)O)cc1.CC(C)OC(=O)[C@@H](N)CO [[L-SerOiPr][IBU], L-serine isopropyl ester ibuprofenate] and stop.
11.035

Specify Q%24 h, the percentage of the applied dose permeated after 24 h for CC(C)Cc1ccc(C(C)C(=O)O)cc1.CC(C)OC(=O)[C@H](C)N [[L-AlaOiPr][IBU], L-alanine isopropyl ester ibuprofenate] and stop.
6.786

Specify Q%24 h, the percentage of the applied dose permeated after 24 h for CC(C)C[C@H](N)C(=O)OC(C)C.CC(C)Cc1ccc(C(C)C(=O)O)cc1 [[L-LeuOiPr][IBU], L-leucine isopropyl ester ibuprofenate] and stop.
11.077

###

Experiment: Solubility (saturation concentration) in deionised water and PBS pH 7.4, HPLC
Details: PBS pH 7.4, 32 °C; g of compound
Under this convention, criterion met denotes Solubility in Phosphate Buffer pH = 7.4 strictly below 4 g∙dm^−3 and criterion not met denotes Solubility in Phosphate Buffer pH = 7.4 at or above 4 g∙dm^−3.

Quick check: does CC(C)Cc1ccc(C(C)C(=O)O)cc1.CC(C)OC(=O)[C@@H](N)CCCCN [[L-LysOiPr][IBU], L-lysine isopropyl ester ibuprofenate] have Solubility in Phosphate Buffer pH = 7.4 under 4 g∙dm^−3?
criterion not met

Quick check: does CC(C)Cc1ccc(C(C)C(=O)O)cc1.CC(C)OC(=O)[C@@H](N)Cc1ccccc1 [[L-PheOiPr][IBU]] have Solubility in Phosphate Buffer pH = 7.4 under 4 g∙dm^−3?
criterion met

Quick check: does CC(C)Cc1ccc(C(C)C(=O)O)cc1.CC(C)Cc1ccc(C(C)C(=O)O)cc1.CC(C)OC(=O)[C@@H](N)CCCCN [[L-LysOiPr][IBU]2] have Solubility in Phosphate Buffer pH = 7.4 under 4 g∙dm^−3?
criterion not met

Quick check: does CC(C)Cc1ccc(C(C)C(=O)O)cc1.CC(C)OC(=O)[C@@H](N)CS [[L-CysOiPr][IBU], L-cysteine isopropyl ester ibuprofenate] have Solubility in Phosphate Buffer pH = 7.4 under 4 g∙dm^−3?
criterion not met

Quick check: does CC(C)Cc1ccc(C(C)C(=O)O)cc1.CC(C)OC(=O)C[C@H](N)C(=O)OC(C)C [[L-Asp(OiPr)2][IBU]] have Solubility in Phosphate Buffer pH = 7.4 under 4 g∙dm^−3?
criterion met

Quick check: does CC(C)Cc1ccc(C(C)C(=O)O)cc1.CC[C@H](C)[C@H](N)C(=O)OC(C)C [[L-IleOiPr][IBU]] have Solubility in Phosphate Buffer pH = 7.4 under 4 g∙dm^−3?
criterion not met

Quick check: does CC(C)C[C@H](N)C(=O)OC(C)C.CC(C)Cc1ccc(C(C)C(=O)O)cc1 [[L-LeuOiPr][IBU], L-leucine isopropyl ester ibuprofenate] have Solubility in Phosphate Buffer pH = 7.4 under 4 g∙dm^−3?
criterion met

Quick check: does CC(C)Cc1ccc(C(C)C(=O)O)cc1.CC(C)OC(=O)[C@H](C)N [[L-AlaOiPr][IBU], L-alanine isopropyl ester ibuprofenate] have Solubility in Phosphate Buffer pH = 7.4 under 4 g∙dm^−3?
criterion not met
